Provenance of the data: patent US20230348603A1

# assay system: T1, Human VSIG4-L-Fc (human)
# T1 construct: also called hVSIG4-L-Fc; hVSIG4-L
# T1 sequence (chain, as listed by the source limits assumed): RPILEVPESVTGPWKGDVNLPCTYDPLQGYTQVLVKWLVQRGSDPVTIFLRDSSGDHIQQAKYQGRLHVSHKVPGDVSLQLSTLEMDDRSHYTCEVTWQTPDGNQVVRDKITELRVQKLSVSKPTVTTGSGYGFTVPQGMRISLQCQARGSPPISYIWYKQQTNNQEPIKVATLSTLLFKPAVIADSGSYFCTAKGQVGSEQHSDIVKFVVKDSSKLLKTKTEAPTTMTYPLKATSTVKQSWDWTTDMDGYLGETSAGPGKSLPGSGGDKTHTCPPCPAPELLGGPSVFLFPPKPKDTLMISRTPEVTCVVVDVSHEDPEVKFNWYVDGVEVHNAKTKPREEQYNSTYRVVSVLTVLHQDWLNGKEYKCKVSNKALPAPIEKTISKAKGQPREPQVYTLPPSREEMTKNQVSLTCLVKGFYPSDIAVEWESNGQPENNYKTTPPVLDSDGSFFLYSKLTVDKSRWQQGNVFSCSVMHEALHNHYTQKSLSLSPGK
# assay summary: BLI binning on hVSIG4-L-Fc, competitor 15C04 first;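 also: normalized to binding of second antibody without first competitor antibody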
measured property: normalized maximum binding nm shift

Prompt: Quick one: normalized maximum binding nm shift of 12A08 mouse/human chimeric IgG4 (S228P) kappa (antibody, V domains shown) VH: EVMLVESGGGLVKPGGSLKLSCAASGFTFDDFYMYWVRQTPEKRLEWVASISDGGTYTYYPDSVKGRFTISRDNAKNTLYLQLSSLKSEDTAMYYCARGVDKYYYAMDYWGQGTSVTVSS VL: QILLTQSPAIMSASPGEKVTITCSASSSVSYMHWFQQKPGTSPKLWIYSTSNLASGVPARFSGSGSGTSYSLTISRMEAEDAATYYCQQRSSYPLTFGAGTKLELKR ?
Response: 0.94 normalized

Prompt: I am curious: what normalized maximum binding nm shift value has been reported for 16E03 mouse/human chimeric IgG4 (S228P) kappa (antibody, V domains shown) VH: QVQLQQSGAELARPGASVKMSCKASGYTFTSYTMHWIKQRPGQGLEWIGYINPSSGHTYYNQKFKDKATLTPDKSSSTAYMQLTSLTSEDSAVYYCARRIPTAYAMDYWGQGTSVTVSS VL: EIQMTQSHKFMSTSVGDRVSITCKASQDVGTAVAWYQQKPGQSPKLLIYWASTRHTGVPDRFTGSGSGTDFTLTISNVQSEDLADYFCQQYSSYPLTFGAGTKLELKR ?
Response: 0.86 normalized
